Test: yeast display, Sf9 membrane polyspecificity reagent, FACS + sequencing; frameworks hold sequencing errors
Reported Metric: polyreactivity (PSR sort gate)

Chain Sequence	Result
QVQLVESGGGLVQAGGSLRLSCDASGSIFLFNAMGWYIQAPGKERELVASISRASSTSYADSVKGRFTISRDNAKNTVYLQMNSLKPEDTAVYYCAAVVASFEFRFDYWGQGTQVTVSS	low polyreactivity
QVQLVESGGGLVQAGGSLRLSCAASGRIFGVNAMGLYRQAPGKERELVAVISSGGSTYYADSVKGRFTISRDNAKNTVYLQMNSLKPEDTAVYYCNAVVGRWFPYNLSDYWGQGTQVTVSS	low polyreactivity
QVQLVESGGGIVQAGGRLRLSCAASGRIFDDNSMGWYRKAPGKETELVATISSSGVSTSYADSVKGRFTISRDNAKNTVYFQMNSLNPEYTAVYFCNAGYRLRYKFDYWGQGTQVTVAS	low polyreactivity
QVQLVESGGGLVQAGGTLRLSCAASGRTFTYYAMGWSRQAPGKEREIVSAISSTGTSTYYADSVKGRFTISRDNAKNTVYLQMNSLKPEDTAVYYCNARVATYRLHSKFYYWGQGTQVTVSS	high polyreactivity
QVQLVESGGGLVQAGGSLRLSCAASGRTFSSYTMGWYRQAPGKEREMVAAISKSGASTYYADSVKGRFTISRDNAKNTVYLQMNSLKPEDTAVYYLAARAYPFKIDGYWGQGTQVTVSS	high polyreactivity
